- study_system: UniProtKB Q03431
- test_description: In vitro cAMP signal activity in HKRK-B7 cells (LLC-PK1 cells overexpressing the human PTH1 receptor)
- Assay type: cell-based
- particulars: HKRK-B7 cells; compound at 1×10^−3 M; cAMP produced as percentage of that produced by hPTH(1-34) at 100 nM
observable: cAMP production activity (%)
Answer in %, number only, no unit symbol.

Examples with their reported cAMP production activity (%) follow.
Cc1cc(C(=O)N2CCN(C)CC2)ccc1/C=C/S(=O)(=O)N1CCC2(CC1)N=C(c1cccc(OC(F)(F)F)c1)NC2=O | 93
Cc1noc(C)c1S(=O)(=O)N1CCC2(CC1)N=C(C1CCCCC1)NC2=O | 56
Cc1cc(N2C(=O)C(C)C[C@@H]2CO)cc(C)c1/C=C/S(=O)(=O)N1CCC2(CC1)N=C(c1cccc(OC(F)(F)F)c1)NC2=O (stereo partly shown) | 55
Cc1cc(C(=O)N(C)C)ccc1CCS(=O)(=O)N1CCC2(CC1)N=C(c1c(F)cccc1F)NC2=O | 31
Cc1cc(N(C)C(N)=O)cc(C)c1CCS(=O)(=O)N1CCC2(CC1)N=C(C1CCC(C)C1)NC2=O (stereo not shown) | 84
Cc1cccc(CCCS(=O)(=O)N2CCC3(CC2)N=C(C2CCCCC2)NC3=O)c1 | 20

Prompt: # lookup: cAMP production activity (%) of `COc1cccc(CCS(=O)(=O)N2CCC3(CC2)N=C([C@H]2CC[C@H](C)CC2)NC3=O)c1C`
Completion: 40

* * *

- study_system: human PTH1 receptor (Homo sapiens)
- test_description: In vitro cAMP signal activity in HKRK-B7 cells (LLC-PK1 cells overexpressing the human PTH1 receptor)
- Format: cell-based
- particulars: HKRK-B7 cells; compound at 1×10^−3 M; cAMP produced as percentage of that produced by hPTH(1-34) at 100 nM
Reported cAMP production activity (%) is given for each of the following molecules.
Your answer is read as %, so omit the unit and give the number.

Worked cases, cAMP production activity (%) given:
O=C(c1c[nH]c2cccc(CCS(=O)(=O)N3CCC4(CC3)N=C(C3CCCCC3)NC4=O)c12)C(F)(F)F [Compound 649] | 40
Cc1cc(N2CCN(C(=O)OC(C)(C)C)CC2=O)ccc1/C=C/S(=O)(=O)N1CCC2(CC1)N=C(C1CCC(C)CC1)NC2=O (stereo not shown) [Compound 578] | 13
Cc1cc(N(C)C(N)=O)cc(C)c1/C=C/S(=O)(=O)N1CCC2(CC1)N=C(c1cccc(OCCCC(F)(F)F)c1)NC2=O [Compound 1019] | 72
Cc1cc(S(=O)(=O)NC[C@@H](O)CO)ccc1/C=C/S(=O)(=O)N1CCC2(CC1)N=C(c1cccc(OC(F)(F)F)c1)NC2=O [Compound 599] | 59
O=C(N1CCCCC1)N1CCCC(C2=NC3(CCN(S(=O)(=O)c4cccc(Cl)c4)CC3)C(=O)N2)C1 (stereo not shown) [Compound 456] | 28
O=C(NCc1ccccc1)c1ccccc1S(=O)(=O)N1CCC2(CC1)N=C(C1CCCCC1)NC2=O [Compound 347] | 23
CCC1CCC(C2=NC3(CCN(S(=O)(=O)CCc4ccc(C(=O)N(C)C)cc4C)CC3)C(=O)N2)CC1 (stereo not shown) [Compound 896] | 83
Cc1cc(N2C(=O)CNC2=O)ccc1CCS(=O)(=O)N1CCC2(CC1)N=C([C@H]1CC[C@H](CC=C(F)F)CC1)NC2=O [Compound 946] | 102

Prompt: // cAMP production activity (%) lookup, key: Cc1cc(OC2CCN(C(=O)OC(C)(C)C)CC2)ccc1/C=C/S(=O)(=O)N1CCC2(CC1)N=C(c1cccc(OC(F)(F)F)c1)NC2=O [Compound 602]
Completion: 3.0

Prompt: Now give it for Cc1cc(S(=O)(=O)NC(CO)(CO)CO)ccc1CCS(=O)(=O)N1CCC2(CC1)N=C(c1cccc(C(F)(F)F)c1)NC2=O [Compound 854] too.
Completion: 80

Prompt: # repeat for Cc1cc(C(=O)N2CCC(F)(F)CC2)ccc1CCS(=O)(=O)N1CCC2(CC1)N=C(c1cccc(C(F)(F)F)c1)NC2=O [Compound 365]
Completion: 81

Prompt: Ok, now Cc1cc(C(=O)N(C)C)ccc1CCS(=O)(=O)N1CCC2(CC1)N=C(Nc1cccc(C(F)(F)F)c1)NC2=O [Compound 1395]
Completion: 68

Prompt: Another: Cc1cc(N(C)C(N)=O)cc(C)c1CC[S@TB4](=O)(=O)N1CCC2(CC1)N=C(CCC(F)(F)CCCCCC(F)(F)F)NC2=O [Compound 1147]
Completion: 112

* * *

- study_system: human PTH1 receptor (Homo sapiens, UniProt Q03431)
- Sequence (Q03431 27-593): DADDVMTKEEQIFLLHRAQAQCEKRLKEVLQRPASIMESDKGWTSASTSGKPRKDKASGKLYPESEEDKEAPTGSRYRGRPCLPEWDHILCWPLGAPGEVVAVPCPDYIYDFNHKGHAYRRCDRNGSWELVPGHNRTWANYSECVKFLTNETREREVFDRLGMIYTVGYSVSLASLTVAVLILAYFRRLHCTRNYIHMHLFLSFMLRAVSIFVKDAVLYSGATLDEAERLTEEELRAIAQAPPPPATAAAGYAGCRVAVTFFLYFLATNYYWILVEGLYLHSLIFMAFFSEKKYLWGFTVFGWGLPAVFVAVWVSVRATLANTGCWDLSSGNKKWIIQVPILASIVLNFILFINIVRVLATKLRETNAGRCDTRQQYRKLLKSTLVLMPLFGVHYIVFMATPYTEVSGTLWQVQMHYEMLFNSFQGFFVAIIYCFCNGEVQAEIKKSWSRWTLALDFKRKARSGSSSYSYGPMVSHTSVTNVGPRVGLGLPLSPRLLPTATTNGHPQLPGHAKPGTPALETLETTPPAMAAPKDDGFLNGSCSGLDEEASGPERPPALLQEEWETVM
- test_description: In vitro cAMP signal activity in HKRK-B7 cells (LLC-PK1 cells overexpressing the human PTH1 receptor)
- Type: cell-based
- particulars: HKRK-B7 cells; compound at 1×10^−3 M; […]; 0.1 µM
observable: cAMP production activity (%)
Give your result in % as a bare value.

Use these answered entries as a reference point.
CC(=O)N1CCC(N(C(C)=O)c2ccc(/C=C/S(=O)(=O)N3CCC4(CC3)N=C(c3cccc(OC(F)(F)F)c3)NC4=O)c(C)c2)CC1 | 76
O=C(Nc1ccccc1)c1ccccc1S(=O)(=O)N1CCC2(CC1)N=C(C1CCCCC1)NC2=O | 17
CC(=O)N(c1ccc(/C=C/S(=O)(=O)N2CCC3(CC2)N=C(c2cccc(OC(F)(F)F)c2)NC3=O)c(C)c1)C1CCN(C(=O)OC(C)(C)C)CC1 | 21
Cc1cc(C(=O)N2CCC(=O)CC2)cc(C)c1/C=C/S(=O)(=O)N1CCC2(CC1)N=C(c1ccc(F)c(C(F)(F)F)c1)NC2=O | 89
Cc1cc(N(C)c2nccs2)cc(C)c1CCS(=O)(=O)N1CCC2(CC1)N=C([C@H]1CC[C@H](C)CC1)NC2=O | 84

Prompt: Item under review: CNN(C)C(=O)c1cc(C)c(CCS(=O)(=O)N2CCC3(CC2)N=C(C2CCC(CCC(F)(F)F)CC2)NC3=O)c(C)c1 (stereo not drawn) . Reported cAMP production activity (%)?
Completion: 86

Prompt: Same lookup for `COC(=O)N(C)c1ccc(CCS(=O)(=O)N2CCC3(CC2)N=C(c2cccc(OC(F)(F)F)c2)NC3=O)c(C)c1` , please.
Completion: 90

Prompt: Also check `CNC(=O)Nc1cccc(CCS(=O)(=O)N2CCC3(CC2)N=C(C2CCCCC2)NC3=O)c1C`
Completion: 55

* * *

- study_system: human PTH1 receptor (Homo sapiens, UniProt Q03431)
- test_description: In vitro cAMP signal activity in HKRK-B7 cells (LLC-PK1 cells overexpressing the human PTH1 receptor)
- Assay type: cell-based
- particulars: HKRK-B7 cells; compound at 1×10^−3 M; cAMP produced as percentage of that produced by hPTH(1-34) at 100 nM
As shown below, each of these compounds has a reported cAMP production activity (%) value.
A complete answer gives the number and then names the unit.

Worked examples, 6 compounds total:
Cc1cc2ccc1CCS(=O)(=O)N1CCC3(CC1)N=C(NC3=O)c1cc(cc(C(F)(F)F)c1)OCCCCCCOCCN(C)C2=O | 57%
CC(=O)N(C)c1cc(C)c(/C=C/S(=O)(=O)N2CCC3(CC2)N=C(C2CCC(CCC(F)(F)F)CC2)NC3=O)c(C)c1 (stereo not shown) | 75%
Cc1cc(CNC(N)=O)cc(C)c1CCS(=O)(=O)N1CCC2(CC1)N=C(C1CCC(C)CC1)NC2=O (stereo not shown) | 78%
Cc1cc(NCCO)ccc1CCS(=O)(=O)N1CCC2(CC1)N=C(c1cccc(C(F)(F)F)c1)NC2=O | 65%
Cc1cc(C(=O)N2CCN(C)CC2)cc(C)c1/C=C/S(=O)(=O)N1CCC2(CC1)N=C(C1CCC(CCC(F)(F)F)CC1)NC2=O (stereo not shown) | 64%
Cc1cc2cc(C)c1CCS(=O)(=O)N1CCC3(CC1)N=C(CCCC/C=C/CCCCCCCC(=O)N2C)NC3=O | 12%

Now turn to the next compound.
Prompt: Returns the measured cAMP production activity (%) for the input compound. Input: `CCCCCCCC#CC1=NC2(CCN([S@TB17](=O)(=O)CCc3c(C)cc(N(C)C(N)=O)cc3C)CC2)C(=O)N1`
Completion: 113%
